Give measured TGI for each item. Keep answers brief.
- System: MOLT-4 leukemia
- Assay Method Text: NCI tumour cell line growth inhibition, 48 h

The cases that follow already have their TGI on record.
Compound | System | TGI
Oc1cc(C2OCCCO2)cc(O)c1O | MOLT-4 leukemia | > 100 µM
C=C1C(=O)CC2C(=O)C(C)(O)CC/C=C(\C)C(=O)CC12 (stereo unspecified) | MOLT-4 leukemia | 17.1 µM
O=C1[C@H]2ON(c3ccccc3)C(c3ccc(Cl)cc3)[C@H]2C(=O)N1c1ccc(Cc2ccc(N3C(=O)[C@@H]4ON(c5ccccc5)C(c5ccc(Cl)cc5)[C@@H]4C3=O)cc2)cc1 (stereo partly specified) | MOLT-4 leukemia | > 100 µM
Oc1cn(-c2ccc(Cl)cc2)nc1-c1n[nH]c(=S)n1C1CCCCC1 | MOLT-4 leukemia | > 29 µM
COc1cc2c3c(n(CCCN(C)C)c(=O)c2cc1OC)-c1ccccc1C3=O | MOLT-4 leukemia | 1.73 µM

Query :: Please indicate recorded TGI of COC(=O)C1=CC(=O)OC1(OO)c1ccccc1 (stereo unspecified) measured with MOLT-4 leukemia.
Result :: > 100 µM
